System: p-sites in DNA-damaged AsPC-1 cells
test: decryptM dose-resolved phosphoproteomics of ATRi in GEM-pre-treated cells
Format: cell-based, human
measurementSetup: PSMD4-pS266
propertyLabel: Log2 PTM response (GEM+ATRi vs. GEM)

molecule	result
C[C@@H]1COCCN1c1cc(-c2ccnn2C)c2ccnc(-c3ccn[nH]3)c2n1 [Elimusertib]	-0.9
Nc1nn2cc(F)cnc2c1C(=O)Nc1cncc(F)c1N1CCC(C(=O)N2CCN(C3COC3)CC2)CC1 [Gartisertib]	-1.2
CNCc1ccc(-c2cc(-c3nc(-c4ccc(S(=O)(=O)C(C)C)cc4)cnc3N)on2)cc1 [Berzosertib]	-1.6

Please examine the following record next.
Q. Find the recorded Log2 PTM response (GEM+ATRi vs. GEM) belonging to C[C@@H]1COCCN1c1cc(C2([S@](C)(=N)=O)CC2)nc(-c2cc[nH]c3nccc2-3)n1 [Ceralasertib] and report it.
A. -1.3
